- TARGET_UNDER_TEST: T1, human GM-CSF (human, UniProt P04141 18-144)
- T1 construct: mature; the preparation is named under assay or readout; also called hGM-CSF; recombinant human GM-CSF
- TEST_DESCRIPTION: FACS receptor inhibition assay: inhibition of binding of 0.5 µg/ml biotinylated GM-CSF to GM-CSF receptor alpha on CHO-GMRa#11 cells
RECORDED_METRIC: % inhibition at 5 µg/ml antibody

Challenge: Suppose we examine the binder MOR03929 Fab (Fab, V domains shown, Parental HuCAL GOLD Fab with C-terminal FLAG and 6xHis tags) VH: QVQLVESGGGLVQPGGSLRLSCAASGFTFSSYWMNWVRQAPGKGLEWVSGISYSGSETYYADSVKGRFTISRDNSKNTLYLQMNSLRAEDTAVYYCARGFGTDFWGQGTLVTVSS VL: DIELTQPPSVSVAPGQTARISCSGDSIGKKYAYWYQQKPGQAPVLVIYKKRPSGIPERFSGSNSGNTATLTISGTQAEDEADYYCSSWDSTGLVFGGGTKLTVLG ; what % inhibition at 5 µg/ml antibody value has been reported?
Response given: ~60%

Challenge: Cool, now MOR04287 Fab (Fab, V domains shown, Fab with FLAG and 6xHis tags) VH: QVQLVESGGGLVQPGGSLRLSCAASGFTFSSYWMNWVRQAPGKGLEWVSGIENKRAGGATFYAASVKGRFTISRDNSKNTLYLQMNSLRAEDTAVYYCARGFGTDFWGQGTLVTVSS VL: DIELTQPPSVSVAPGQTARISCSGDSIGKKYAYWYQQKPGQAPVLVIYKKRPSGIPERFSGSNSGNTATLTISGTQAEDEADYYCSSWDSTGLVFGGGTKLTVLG
Response given: ~75%

Challenge: How about this binder: MOR04350 Fab (Fab, V domains shown, X-cloned Fab (VH of MOR04287 x VL of MOR04302) with FLAG and 6xHis tags) VH: QVQLVESGGGLVQPGGSLRLSCAASGFTFSSYWMNWVRQAPGKGLEWVSGIENKRAGGATFYAASVKGRFTISRDNSKNTLYLQMNSLRAEDTAVYYCARGFGTDFWGQGTLVTVSS VL: DIELTQPPSVSVAPGQTARISCSGDSIGKKYAYWYQQKPGQAPVLVIYKKRPSGIPERFSGSNSGNTATLTISGTQAEDEADYYCSAWGDKGMVFGGGTKLTVLG
Response given: ~75%
